Listing of recorded inhibition at 5 µM by entry.
# subject-of-test: SARS-CoV-2 3CLpro (Severe acute respiratory syndrome coronavirus 2)
# assay-overview: biochemical
# Assay type: biochemical
# condition-context: 4 h, read-out: Replicate_1 (LOPAC screen with protease)

compound | inhibition at 5 µM, %
C[n+]1cc2c3c(ccc2c2ccc4cc5c(cc4c21)OCO5)OCO3 [Sanguinarine chloride] | 46.2
Cc1cc(O)c2c(c1)C(=O)c1cc(O)cc(O)c1C2=O | 10.9
Oc1ccc(C2CNCCc3c2cc(O)c(O)c3Cl)cc1 (centres unmarked) [Fenoldopam bromide] | 29.5
O=C(CCc1ccc(O)cc1)c1c(O)cc(O)cc1O | 8.32
O=c1cc(O)cc(/C=C/c2ccc(O)c(O)c2)o1 [Hispidin, reference compound] | 46.3

---

# subject-of-test: SARS-CoV-2 3CLpro (Severe acute respiratory syndrome coronavirus 2, UniProt P0DTD1)
# assay-overview: biochemical
# Format: biochemical
# Parameters: unit not given here
# condition-context: sheet LOPAC_screen_w_protease; LOPAC1280 primary screen at 5 µM, with protease; replicate 2

compound | Replicate_2
Cl.NCCc1ccc(O)cc1 [4-Hydroxyphenethylamine hydrochloride] | 1.1978
COc1ccc(CCN(C)CCc2ccc(OC)c(OC)c2)cc1OC.Cl [YS-035 hydrochloride] | 0.8934
CN1C2CCC1CC(OC(=O)c1c[nH]c3ccccc13)C2.Cl (centres unmarked) | 0.01899
N[C@@H](Cn1oc(=O)[nH]c1=O)C(=O)O [(+)-Quisqualic acid] | -0.6187
N=C(N)NC(=N)Nc1ccccc1 [1-Phenylbiguanide] | 1.6298

---

# subject-of-test: SARS-CoV-2 3CLpro (Severe acute respiratory syndrome coronavirus 2)
# assay-overview: biochemical
# Type: biochemical
# Design: unit not given here
# condition-context: sheet LOPAC_screen_w_protease; primary screen of LOPAC1280 at 5 µM with protease; mean of the two replicates
Listing of recorded mean by entry.

compound | mean
CN1CCc2cc(Cl)c(O)cc2[C@@H](c2ccccc2)C1.Cl [R(+)-SCH-23390 hydrochloride] | 3.494
Cn1cnc2c(NC3CCCC3)ncnc21 | 3.328
O=C(O)c1cc(=O)c2c(Cl)cc(Cl)cc2[nH]1 | 3.519
Nc1cc(=O)[nH]c(N)n1 | 3.421
Cl.c1ccc(CN(CC2=NCCN2)c2ccccc2)cc1 [Antozoline hydrochloride] | 3.208
CC(C)c1ccc2c(c1)c(SC(C)(C)C)c(CC(C)(C)C(=O)O)n2Cc1ccc(Cl)cc1 | 3.5784
CCCCCCC(C(C)O)n1cnc2c(N)ncnc21.Cl (stereo not shown) | 3.427
C[N+](C)(C)CC#CCOC(=O)Nc1cccc(Cl)c1.[Cl-] | 3.792
CCCC(=O)NCCc1c2n(c3ccc(OC)cc13)Cc1ccccc1-2 | 3.902
Cl.NCC(O)c1ccc(O)cc1 (racemic) [(±)-Octopamine hydrochloride] | 4.023
O=C(Nc1cc(C(=O)Nc2ccc(S(=O)(=O)[O-])cc2S(=O)(=O)[O-])cc(C(=O)Nc2ccc(S(=O)(=O)[O-])cc2S(=O)(=O)[O-])c1)Nc1cc(C(=O)Nc2ccc(S(=O)(=O)[O-])cc2S(=O)(=O)[O-])cc(C(=O)Nc2ccc(S(=O)(=O)[O-])cc2S(=O)(=O)[O-])c1.[Na+].[Na+].[Na+].[Na+].[Na+].[Na+].[Na+].[Na+] [NF449 octasodium salt] | 4.044
N[C@H](C(=O)O)c1cc(O)cc(O)c1 [(S)-3,5-Dihydroxyphenylglycine] | 3.456
CCCCN1CCC(n2c(=O)[nH]c3ccccc32)CC1.O=C(O)C(=O)O [NS 521 oxalate] | 3.504
O=C([O-])c1cc2cc(Cc3cccnc3)ccc2o1.[Na+] [Furegrelate sodium] | 4.074
CC[C@@]1(O)C(=O)OCc2c1cc1n(c2=O)Cc2cc3ccccc3nc2-1 [(S)-(+)-Camptothecin] | 3.282
N[C@@H]1CONC1=O (racemic) | 3.186
Br.CCCN1CC[C@@H]2c3cc(O)ccc3CC[C@@H]21 (racemic) [cis-(±)-8-OH-PBZI hydrobromide] | 4.0009
C[N+]1(C)C2CCC1CC(OC(=O)c1c[nH]c3ccccc13)C2.[I-] (stereo not shown) | 3.717
N/C(=N\C(=O)c1nc(Cl)c(N)nc1N)NCc1ccc(Cl)c(Cl)c1 | 4.038
C[C@@H]1O[C@@H](O[C@H]2C[C@@H](O)[C@]3(CO)[C@H]4[C@H](O)C[C@]5(C)[C@@H]([C@@H]6COC(=O)C6)CC[C@]5(O)[C@@H]4CC[C@]3(O)C2)[C@H](O)[C@H](O)[C@H]1O [Dihydroouabain] | 3.947
N#C/C(=C\c1ccc(O)c(O)c1)C(=O)N1CCc2ccccc21 | 3.92
C/C(=C\c1ccc(C(=O)O)cc1)c1ccc2c(c1)C(C)(C)CCC2(C)C | 3.657
Cl.FC(F)(F)c1cc(CO[C@H]2CCCN[C@H]2c2ccccc2)cc(C(F)(F)F)c1 [L-733,060 hydrochloride] | 3.689
O=C(OCCN1CCOCC1)C1(c2ccccc2)CCCCC1 | 3.777
N#C/C(=C\c1ccc(O)c(O)c1)C(=O)NCCCc1ccccc1 | 3.848
CCCCCCCC/C=C\CCCCCCCC(=O)NCCO | 3.1732
COc1cc(C=C(C#N)C#N)cc(O)c1O | 3.625
CC[C@@H]1Cc2cc(O)ccc2C2=C1c1ccc(O)cc1C[C@H]2CC | 3.66
Cl.N[C@@H](Cc1cnc[nH]1)C(=O)O [L-Histidine hydrochloride] | 3.829
Nc1ccc(CCNc2ncnc3c2ncn3[C@@H]2O[C@H](CO)[C@@H](O)[C@H]2O)cc1 | 3.204
Nc1nccc2c1ncn2[C@@H]1O[C@H](CO)[C@@H](O)[C@H]1O | 3.161

---

Listing of recorded inhibition at 5 µM by entry.
# subject-of-test: SARS-CoV-2 3CLpro (Severe acute respiratory syndrome coronavirus 2)
# assay-overview: biochemical
# Assay type: biochemical
# condition-context: 4 h, sheet LOPAC_screen_w_protease; LOPAC1280 primary screen with protease, 5 µM compound; replicate 1; read-out: Replicate_1
Counter-ions that a name gives are not always drawn.

compound | unit-abbreviation | inhibition at 5 µM
NCCCCNCCCN [Spermidine trihydrochloride] | % | 3.25
Cc1ccccc1CNc1ncnc2c1ncn2[C@@H]1O[C@H](CO)[C@@H](O)[C@H]1O | % | 4.09
O=C(O)c1cccnc1Nc1cccc(C(F)(F)F)c1 | % | 4.76
C=CCN1CC[C@]23CCCC[C@H]2[C@H]1Cc1ccc(O)cc13 [Levallorphan tartrate] | % | 5.56
CN(C)c1ccc(O)c2c1C[C@H]1C[C@H]3[C@H](N(C)C)C(O)=C(C(N)=O)C(=O)[C@@]3(O)C(O)=C1C2=O [Minocycline hydrochloride] | % | 4.79
CC(=O)[C@H]1CC[C@H]2[C@@H]3CCC4=CC(=O)CC[C@]4(C)[C@H]3CC[C@]12C | % | 3.58
CC(C)(C)c1cc(/C=C(\C#N)C(N)=S)cc(C(C)(C)C)c1O | % | 5.93
CN1C[C@@H](NS(=O)(=O)N(C)C)C[C@@H]2c3cccc4c3c(cn4C)C[C@H]21 [Mesulergine hydrochloride] | % | 4.85

---

# subject-of-test: SARS-CoV-2 3CLpro (Severe acute respiratory syndrome coronavirus 2)
# assay-overview: biochemical
# Assay type: biochemical
# condition-context: read-out: B) EC50 without Triton X-100
measured-attribute: EC50 (nM)

given-smiles | subject-of-test | experimental-result
NC[C@@H]1O[C@H](C23CC4CC(CC(C4)C2)C3)Cc2c1ccc(O)c2O | SARS-CoV-2 3CLpro (Severe acute respiratory syndrome coronavirus 2) | 2340

---

Listing of recorded mean by entry.
# subject-of-test: SARS-CoV-2 3CLpro (Severe acute respiratory syndrome coronavirus 2, UniProt P0DTD1)
# assay-overview: biochemical
# Type: biochemical
# Design: unit not given here
# condition-context: sheet LOPAC_screen_w_protease; primary screen of LOPAC1280 at 5 µM with protease; mean of the two replicates

molecule | mean
NC(CCCCCP(=O)(O)O)C(=O)O (racemic) [(±)-2-Amino-7-phosphonoheptanoic acid] | 3.542
COc1nc(C)nc(Cl)c1NC1=NCCN1.Cl [Moxonidine hydrochloride] | 3.905
Ic1ccccc1CNC1C2CCN(CC2)C1C(c1ccccc1)c1ccccc1.O=C(O)C(=O)O [L-703,606 oxalate] | 3.6584
C/C=C1\C(=O)C[C@H]2[C@@H]3CCC4=CC(=O)CC[C@]4(C)[C@H]3CC[C@]12C [(Z)-Gugglesterone] | 3.352
CC(O)C(C)OC(=O)[C@@H]1C[C@@H]2c3cccc4c3c(cn4C(C)C)C[C@H]2N(C)C1.O=C(O)/C=C\C(=O)O (stereo partly shown) [LY-53,857 maleate] | 3.324
COc1ccccc1CNCCCCCCNCCCCCCCCNCCCCCCNCc1ccccc1OC.Cl.Cl.Cl.Cl [Methoctramine tetrahydrochloride] | 4.069
CCCN1CCOC2c3cc(O)ccc3OCC21.Cl (racemic) [(±)-PD 128,907 hydrochloride] | 3.436
NC(Cc1ccc(Cl)cc1)C(=O)O (racemic) [(±)-p-Chlorophenylalanine] | 3.154
O=C(O)CN(CCN(CC(=O)O)CC(=O)O)CCN(CC(=O)O)CC(=O)O | 3.2
COC(=O)c1cc2c(cn1)[nH]c1ccccc12 [Methyl beta-carboline-3-carboxylate] | 3.265
CCCC(C(=O)OCCN(CC)CC)(c1ccccc1)c1ccccc1.Cl [SKF-525A hydrochloride] | 3.89
CCCN(CCC)CCc1c[nH]c2ccc(C(N)=O)cc12.O=C(O)/C=C\C(=O)O | 3.512
C[C@](N)(CCP(=O)(O)O)C(=O)O.Cl [(S)-MAP4 hydrochloride] | 4.027
O=c1[nH]c(=O)n([C@H]2C[C@H](O)[C@@H](CO)O2)cc1/C=C/Br [(E)-5-(2-Bromovinyl)-2'-deoxyuridine] | 3.159
COC(=O)[C@@H](N)Cc1ccc(O)c(O)c1.Cl | 3.737
Cc1nc2sccn2c(=O)c1CCN1CCC(=C(c2ccccc2)c2ccc(F)cc2)CC1 | 3.623
